MEASURED TARGET: HMG-CoA reductase (HMGR) (Homo sapiens (Human))
Sequence (P04035 426-888): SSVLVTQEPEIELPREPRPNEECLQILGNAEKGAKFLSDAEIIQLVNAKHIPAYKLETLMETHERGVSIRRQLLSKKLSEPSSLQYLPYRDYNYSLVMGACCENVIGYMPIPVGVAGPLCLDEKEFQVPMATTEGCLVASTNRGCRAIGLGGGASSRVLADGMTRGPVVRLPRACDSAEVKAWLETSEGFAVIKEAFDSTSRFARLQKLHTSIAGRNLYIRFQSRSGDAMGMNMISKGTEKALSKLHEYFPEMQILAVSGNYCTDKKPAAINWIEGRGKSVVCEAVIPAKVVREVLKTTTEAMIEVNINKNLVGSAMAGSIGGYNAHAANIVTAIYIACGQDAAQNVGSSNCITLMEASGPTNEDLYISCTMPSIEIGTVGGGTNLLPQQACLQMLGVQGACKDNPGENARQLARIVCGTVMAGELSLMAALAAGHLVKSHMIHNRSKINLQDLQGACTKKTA
ASSAY METHOD TEXT: HMG-CoA reductase activity assay (NADPH consumption, Sigma kit)
Assay type: biochemical
ASSAY CONDITIONS: human recombinant protein
The following molecules are shown together with reported IC50 values.
Express your answer in nM, writing the number without its unit.

Answered cases to consult:
Query CC(C)c1c(C(=O)Nc2ccccc2)c(-c2ccccc2)c(-c2ccc(F)cc2)n1CC[C@@H](O)C[C@@H](O)CC(=O)NO yields IC50 of 9.2

So, CCC(C)C(=O)O[C@H]1C[C@@H](C)C=C2C=C[C@H](C)[C@H](CC[C@@H](O)C[C@@H](O)CC(=O)NO)[C@H]21 (some centres unmarked) ? Its IC50 was 16.8

Recorded IC50 (molecule CCC(C)(C)C(=O)O[C@H]1C[C@@H](C)C=C2C=C[C@H](C)[C@H](CC[C@@H](O)C[C@@H](O)CC(=O)NO)[C@H]21 ): 11.4

Field: next molecule
// IC50 value for CC(C)c1nc(N(C)S(C)(=O)=O)nc(-c2ccc(F)cc2)c1/C=C/[C@@H](O)C[C@@H](O)CC(=O)NO : 43.7

====

Test system: A549 human lung cancer cells
ASSAY METHOD TEXT: Cell proliferation (MTT) assay, cancer cells
ASSAY CONDITIONS: Homo sapiens, A549, 72 h, read-out: IC50 (μM) A549
PROPERTY NAME: IC50 (µM)
Write the value in µM as a bare number.

Measured IC50, CCC(C)(C)C(=O)O[C@H]1C[C@@H](C)C=C2C=C[C@H](C)[C@H](CC[C@@H]3C[C@@H](O)CC(=O)O3)[C@H]21 [simvastatin, reference compound] : 16.3

====

MEASURED TARGET: HDAC6 (Homo sapiens (Human))
Sequence (Q9UBN7 whole entry): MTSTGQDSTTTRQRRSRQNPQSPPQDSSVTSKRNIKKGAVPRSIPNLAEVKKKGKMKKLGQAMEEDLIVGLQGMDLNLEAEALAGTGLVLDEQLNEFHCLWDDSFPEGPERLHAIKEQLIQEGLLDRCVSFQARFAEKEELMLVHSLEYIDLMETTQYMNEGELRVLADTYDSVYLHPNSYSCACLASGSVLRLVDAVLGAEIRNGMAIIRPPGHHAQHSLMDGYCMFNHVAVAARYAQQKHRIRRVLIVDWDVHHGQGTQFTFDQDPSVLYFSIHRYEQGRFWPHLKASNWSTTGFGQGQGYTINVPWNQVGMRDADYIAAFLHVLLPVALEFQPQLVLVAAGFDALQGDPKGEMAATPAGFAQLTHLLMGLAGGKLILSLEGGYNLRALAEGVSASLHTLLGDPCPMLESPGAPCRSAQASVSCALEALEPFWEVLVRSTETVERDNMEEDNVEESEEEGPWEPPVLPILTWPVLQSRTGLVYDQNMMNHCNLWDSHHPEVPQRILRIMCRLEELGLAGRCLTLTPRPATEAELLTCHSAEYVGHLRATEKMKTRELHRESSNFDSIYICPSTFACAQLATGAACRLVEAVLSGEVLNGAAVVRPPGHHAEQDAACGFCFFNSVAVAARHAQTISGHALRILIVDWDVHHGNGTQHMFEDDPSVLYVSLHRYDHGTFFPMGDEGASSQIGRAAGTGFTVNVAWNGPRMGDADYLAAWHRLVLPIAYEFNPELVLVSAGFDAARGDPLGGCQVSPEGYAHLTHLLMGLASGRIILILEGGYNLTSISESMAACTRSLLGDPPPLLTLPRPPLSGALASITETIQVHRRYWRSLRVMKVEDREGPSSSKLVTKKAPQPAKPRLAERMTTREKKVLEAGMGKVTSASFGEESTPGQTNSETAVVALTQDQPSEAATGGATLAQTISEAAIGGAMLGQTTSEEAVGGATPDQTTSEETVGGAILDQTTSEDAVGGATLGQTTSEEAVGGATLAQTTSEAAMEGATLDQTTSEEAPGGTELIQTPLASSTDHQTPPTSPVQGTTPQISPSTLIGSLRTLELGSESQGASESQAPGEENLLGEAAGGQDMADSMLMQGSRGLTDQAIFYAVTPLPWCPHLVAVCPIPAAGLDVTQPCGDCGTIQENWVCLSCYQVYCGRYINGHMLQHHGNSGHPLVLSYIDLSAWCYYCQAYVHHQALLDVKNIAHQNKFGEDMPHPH
ASSAY METHOD TEXT: HDAC fluorimetric activity assay (Fluor-de-Lys)
Assay type: biochemical
ASSAY CONDITIONS: recombinant HDAC6
PROPERTY NAME: IC50
Phrase the answer as number then unit, nothing more needed.

Recorded IC50 for CCC(C)(C)C(=O)O[C@H]1C[C@@H](C)C=C2C=C[C@H](C)[C@H](CC[C@@H](O)C[C@@H](O)CC(=O)NO)[C@H]21 on HDAC6 (Homo sapiens (Human)) was 67.1 nM

---
Assay HDAC6 (Homo sapiens (Human)), sample CC(C)c1c(C(=O)Nc2ccccc2)c(-c2ccccc2)c(-c2ccc(F)cc2)n1CC[C@@H](O)C[C@@H](O)CC(=O)NO , IC50 read: 83.7 nM

Tested on HDAC6 (Homo sapiens (Human)): CC(C)c1nc(N(C)S(C)(=O)=O)nc(-c2ccc(F)cc2)c1/C=C/[C@@H](O)C[C@@H](O)CC(=O)NO . Observed IC50: 133 nM

Entry CCC(C)C(=O)O[C@H]1C[C@@H](C)C=C2C=C[C@H](C)[C@H](CC[C@@H](O)C[C@@H](O)CC(=O)NO)[C@H]21 (stereo partly shown) : IC50 on HDAC6 (Homo sapiens (Human)) = 50.5 nM

====

Tested on: AOM/DSS-induced colitis-associated colorectal cancer
ASSAY METHOD TEXT: AOM/DSS colitis-associated colorectal cancer model, treatment after AOM/DSS
ASSAY CONDITIONS: oral 100 mg/kg, 5 days a week for 3 weeks after AOM/DSS
PROPERTY NAME: clinical symptoms

For this compound ( O=C(CCCCCCC(=O)Nc1ccccc1)NO [SAHA, suberoylanalide hydroxamic acid, reference compound] ), measured clinical symptoms is attenuated

// clinical symptoms lookup, compound = CC[C@H](C)C(=O)O[C@H]1C[C@@H](C)C=C2C=C[C@H](C)[C@H](CC[C@@H]3C[C@@H](O)CC(=O)O3)[C@H]21 [Lovastatin, lovastatin] , result: not reversed

Reported clinical symptoms of CC(C)c1c(C(=O)Nc2ccccc2)c(-c2ccccc2)c(-c2ccc(F)cc2)n1CC[C@@H](O)C[C@@H](O)CC(=O)NO [Atorva-HA] : attenuated

// sample CC(C)c1c(C(=O)Nc2ccccc2)c(-c2ccccc2)c(-c2ccc(F)cc2)n1CC[C@@H](O)C[C@@H](O)CC(=O)O [Atorvastatin, atorvastatin] , its clinical symptoms was not reversed

====

# IC50 listing for each entry below
MEASURED TARGET: HDAC2 (Homo sapiens (Human))
Sequence (Q92769 whole entry): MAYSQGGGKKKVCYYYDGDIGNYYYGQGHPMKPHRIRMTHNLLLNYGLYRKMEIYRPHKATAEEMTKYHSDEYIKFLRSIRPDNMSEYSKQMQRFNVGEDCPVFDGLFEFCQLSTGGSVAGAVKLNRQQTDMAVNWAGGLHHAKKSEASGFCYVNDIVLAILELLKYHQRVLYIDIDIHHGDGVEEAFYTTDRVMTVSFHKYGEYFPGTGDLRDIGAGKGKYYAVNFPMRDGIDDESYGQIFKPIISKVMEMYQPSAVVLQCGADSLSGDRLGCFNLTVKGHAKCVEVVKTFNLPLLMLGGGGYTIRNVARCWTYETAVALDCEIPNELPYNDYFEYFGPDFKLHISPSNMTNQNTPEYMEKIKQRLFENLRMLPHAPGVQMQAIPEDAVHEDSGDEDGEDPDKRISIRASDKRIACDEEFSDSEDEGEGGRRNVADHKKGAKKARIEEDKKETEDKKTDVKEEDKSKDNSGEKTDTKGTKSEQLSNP
ASSAY METHOD TEXT: HDAC fluorimetric activity assay (Fluor-de-Lys)
Format: biochemical
Respond numerically; units are nM and should not be typed.

# IC50 of CCC(C)C(=O)O[C@H]1C[C@@H](C)C=C2C=C[C@H](C)[C@H](CC[C@@H](O)C[C@@H](O)CC(=O)NO)[C@H]21 (stereo partly drawn) = 468

Pending compound:
CC(C)c1c(C(=O)Nc2ccccc2)c(-c2ccccc2)c(-c2ccc(F)cc2)n1CC[C@@H](O)C[C@@H](O)CC(=O)NO has a reported IC50 of 467

====

Test system: MEF normal mouse fibroblast cells
ASSAY METHOD TEXT: cells
Type: cell-based
ASSAY CONDITIONS: ratio of IC50 values, cancer cell and normal cell
PROPERTY NAME: SI A549/MEF (selectivity index)

Entry CCC(C)C(=O)O[C@H]1C[C@@H](C)C=C2C=C[C@H](C)[C@H](CC[C@@H](O)C[C@@H](O)CC(=O)NO)[C@H]21 (stereo partly shown) — recorded SI A549/MEF (selectivity index) = >5.6

Looking up CCC(C)(C)C(=O)O[C@H]1C[C@@H](C)C=C2C=C[C@H](C)[C@H](CC[C@@H](O)C[C@@H](O)CC(=O)NO)[C@H]21 , I see its SI A549/MEF (selectivity index) listed as >5.0

Further cases:
Lookup result for CCC(C)(C)C(=O)O[C@H]1C[C@@H](C)C=C2C=C[C@H](C)[C@H](CC[C@@H]3C[C@@H](O)CC(=O)O3)[C@H]21 [simvastatin, reference compound] ; measured SI A549/MEF (selectivity index): 2.3

Noted for CC(C)c1c(C(=O)Nc2ccccc2)c(-c2ccccc2)c(-c2ccc(F)cc2)n1CC[C@@H](O)C[C@@H](O)CC(=O)NO : its SI A549/MEF (selectivity index) reads >5.7

====

Collected IC50 values appear next to each entry.
MEASURED TARGET: HDAC1 (Homo sapiens (Human))
Sequence (Q13547 whole entry): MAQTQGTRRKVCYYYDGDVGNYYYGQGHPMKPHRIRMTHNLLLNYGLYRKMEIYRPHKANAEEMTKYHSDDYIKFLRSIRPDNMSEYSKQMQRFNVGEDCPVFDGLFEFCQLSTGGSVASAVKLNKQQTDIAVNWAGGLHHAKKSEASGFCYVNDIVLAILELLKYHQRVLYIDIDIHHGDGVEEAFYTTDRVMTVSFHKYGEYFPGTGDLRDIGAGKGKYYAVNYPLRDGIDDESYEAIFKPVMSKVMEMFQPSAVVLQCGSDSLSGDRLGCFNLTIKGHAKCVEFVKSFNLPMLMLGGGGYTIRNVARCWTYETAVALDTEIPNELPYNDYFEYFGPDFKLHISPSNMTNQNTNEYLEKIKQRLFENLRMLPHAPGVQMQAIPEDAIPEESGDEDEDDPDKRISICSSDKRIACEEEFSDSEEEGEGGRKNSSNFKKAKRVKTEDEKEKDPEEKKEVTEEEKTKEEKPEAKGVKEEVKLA
ASSAY METHOD TEXT: HDAC fluorimetric activity assay (Fluor-de-Lys)
Format: biochemical
ASSAY CONDITIONS: recombinant HDAC1
Experimental: The HDAC activity was performed using the HDAC fluorescent activity assay kit (BIOMOL, Plymouth Meeting, Pa., USA) according to the manufacturer's instructions. […] Fluorescence was measured by fluorometric reader with excitation at 360 nm and emission at 460 nm. The HDAC activity was expressed as arbitrary fluorescence units (AFU). The HDAC activity was calculated as a percentage of activity compared with the control group. […]
Just the number please, in nM, no unit attached.

Lab book: IC50 of CC(C)c1c(C(=O)Nc2ccccc2)c(-c2ccccc2)c(-c2ccc(F)cc2)n1CC[C@@H](O)C[C@@H](O)CC(=O)NO [Atorva-HA] noted as 117

The measured IC50 associated with CC(C)c1nc(N(C)S(C)(=O)=O)nc(-c2ccc(F)cc2)c1/C=C/[C@@H](O)C[C@@H](O)CC(=O)NO [Rosuva-HA] reads 125

IC50 recorded for this compound, CCC(C)C(=O)O[C@H]1C[C@@H](C)C=C2C=C[C@H](C)[C@H](CC[C@@H](O)C[C@@H](O)CC(=O)NO)[C@H]21 (stereo partly shown) [Lova-HA] , is 60.1

# next compound below
Just so you know, measured IC50 for CCC(C)(C)C(=O)O[C@H]1C[C@@H](C)C=C2C=C[C@H](C)[C@H](CC[C@@H](O)C[C@@H](O)CC(=O)NO)[C@H]21 [Simva-HA] came out at 60.7

====

Test system: AOM/DSS-induced colitis-associated colorectal cancer
ASSAY METHOD TEXT: AOM/DSS colitis-associated colorectal cancer model, treatment after AOM/DSS
ASSAY CONDITIONS: oral 100 mg/kg, 5 days a week for 3 weeks after AOM/DSS
PROPERTY NAME: AOM/DSS-induced weight loss

Entry CC(C)c1c(C(=O)Nc2ccccc2)c(-c2ccccc2)c(-c2ccc(F)cc2)n1CC[C@@H](O)C[C@@H](O)CC(=O)O [Atorvastatin, atorvastatin] ; AOM/DSS-induced weight loss = could not protect

Please fill in: AOM/DSS-induced weight loss reported for CC[C@H](C)C(=O)O[C@H]1C[C@@H](C)C=C2C=C[C@H](C)[C@H](CC[C@@H]3C[C@@H](O)CC(=O)O3)[C@H]21 [Lovastatin, lovastatin] = could not protect

response.value for O=C(CCCCCCC(=O)Nc1ccccc1)NO [SAHA, suberoylanalide hydroxamic acid, reference compound] (field: AOM/DSS-induced weight loss) = could not protect
